SYSTEM: HIV Env of isolate CNE52 (clade BC) (HIV)
ASSAY NAME: cell-based or functional assay
REPORTED PROPERTY: IC50 (µg/ml) with constrains

Give a short answer stating reported IC50 (µg/ml) with constrains for PGDM1400 (antibody, V domains shown) VH: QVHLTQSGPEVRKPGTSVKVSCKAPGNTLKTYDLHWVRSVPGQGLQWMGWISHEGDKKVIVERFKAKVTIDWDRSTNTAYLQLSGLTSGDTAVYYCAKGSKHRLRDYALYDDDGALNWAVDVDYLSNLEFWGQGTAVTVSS VL: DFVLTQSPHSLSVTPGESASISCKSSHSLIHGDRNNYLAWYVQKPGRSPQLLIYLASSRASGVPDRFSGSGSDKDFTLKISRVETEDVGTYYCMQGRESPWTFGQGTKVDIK .
> 100 µg/mL
